Each recorded value in this set is attributed to ChEMBL document CHEMBL3885861.

Species on record: Rattus norvegicus
Protocol: Open TG-GATES - Regimen: Single
Type: toxicity, organism-based, Sprague-Dawley
Set-up: regimen Single, gender Male, age 6 weeks
Study conditions: in vivo, po, 0 mg/kg, 3 h, tissue Blood, route gavage, dose level Control
Measure name: Eos

Example cases with answers are listed next.
Compound: CS(=O)(=O)Nc1ccc([N+](=O)[O-])cc1Oc1ccccc1 [NIMESULIDE]
Observed value: 1.4%
--
Compound: Cc1cnc(NC(=O)C2=C(O)c3ccccc3S(=O)(=O)N2C)s1 [MELOXICAM]
Observed value: 1%
--
Compound: COc1ccc(Cl)cc1C(=O)NCCc1ccc(S(=O)(=O)NC(=O)NC2CCCCC2)cc1 [GLYBURIDE]
Observed value: 1%
--
Compound: C=CCO [ALLYL ALCOHOL]
Observed value: 1%
--
Compound: Cn1cnc([N+](=O)[O-])c1Sc1ncnc2nc[nH]c12 [AZATHIOPRINE]
Observed value: 1%

List reported Eos for each of these compounds:
1. O=C1CN(/N=C/c2ccc(-c3ccc([N+](=O)[O-])cc3)o2)C(O)=N1 [DANTROLENE]
2. S=C=Nc1cccc2ccccc12 [1-NAPHTHYLISOTHIOCYANATE]
3. O=C1NC(=O)C(c2ccccc2)(c2ccccc2)N1 [PHENYTOIN]
4. CNCCC(Oc1ccc(C(F)(F)F)cc1)c1ccccc1.Cl (stereo unspecified) [FLUOXETINE HYDROCHLORIDE]
5. Cc1cccc(Nc2cc(Cl)nc(SCC(=O)O)n2)c1C [PIRINIXIC ACID]
6. COc1ccc(O)c(C(C)(C)C)c1.COc1ccc(O)cc1C(C)(C)C [BUTYLATED HYDROXYANISOLE]

Response given:
1: 1%; 2: 1%; 3: 0.8%; 4: 1%; 5: 0.4%; 6: 0.7%

----------
Species: Rattus norvegicus
Protocol: Open TG-GATES - Regimen: Daily Repeat
Format: toxicity, organism-based, Sprague-Dawley
Parameters: regimen Daily Repeat, gender Male, age 6 weeks
Study conditions: in vivo, po, 0 mg/kg, […], tissue Plasma, route gavage, dose level Control, time 28 day
Everything with AST lower than 60 IU/L is f; everything else, including exactly 60 IU/L, is t.

These solved cases illustrate the format of a correct answer.
Compound: COc1ccc(O)c(C(C)(C)C)c1.COc1ccc(O)cc1C(C)(C)C [BUTYLATED HYDROXYANISOLE]
Assigned class: f
--
Compound: O=P1(N(CCCl)CCCl)NCCCO1 (stereo unspecified) [CYCLOPHOSPHAMIDE ANHYDROUS]
Assigned class: t
--
Compound: Cc1cnc(NC(=O)C2=C(O)c3ccccc3S(=O)(=O)N2C)s1
Assigned class: t
--
Compound: Cn1c(=O)c2c(ncn2C)n(C)c1=O
Assigned class: t
--
Compound: O=C1CN(/N=C/c2ccc(-c3ccc([N+](=O)[O-])cc3)o2)C(O)=N1
Assigned class: f

Now examine the next entry.
Challenge: API: above_or_equal(metric=AST, cutoff=60 IU/L) for item Cn1cnc([N+](=O)[O-])c1Sc1ncnc2nc[nH]c12
Response given: t

----------
Kindly supply the reported WBC values for the records listed here.
Species: Rattus norvegicus
Protocol: Open TG-GATES - Regimen: Single
Format: toxicity, organism-based, Sprague-Dawley
Set-up: regimen Single, gender Male, age 6 weeks
Study conditions: in vivo, po, 0 mg/kg, 9 h, tissue Blood, route gavage, dose level Control
One number for each entry, in x10_2/uL.

Compound: Cc1cccc(Nc2cc(Cl)nc(SCC(=O)O)n2)c1C
Measure name: WBC
Observed value: 69.1

Please supply WBC for each of the following items, keeping them in order.
1. Cc1cnc(NC(=O)C2=C(O)c3ccccc3S(=O)(=O)N2C)s1
2. C=CCO
3. O=C1NC(=O)C(c2ccccc2)(c2ccccc2)N1
4. CNCCC(Oc1ccc(C(F)(F)F)cc1)c1ccccc1.Cl (stereo unspecified) [FLUOXETINE HYDROCHLORIDE]
5. Cn1cnc([N+](=O)[O-])c1Sc1ncnc2nc[nH]c12

Response given:
[88.3, 99.3, 79.7, 106.4, 93.5]
